- Assay system: T1, Znf706 N-terminal peptide (Homo sapiens, UniProt Q9Y5V0 1-35)
- T1 chain: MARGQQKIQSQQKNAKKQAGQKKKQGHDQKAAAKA
- Test method notes: fluorescence polarization; 100 mM KCl; range over three G4s; FP/anisotropy: 20 mM NaPi, 100 mM KCl, 0.05% NaN3, pH 7.4, 25 C (LiCl variant: 20 mM Tris-HCl, 100 mM LiCl, pH 7.4; NaCl variant: 20 mM NaPi, 100 mM NaCl, pH 7.4); NMR: 20 mM NaPi, 100 mM KCl, 7.5% D2O, pH 7.4, 4-50 C
- Experimental setup: label: 5' 6-FAM; hybrid G4
Recorded endpoint: Kd

Sample GGGCGCGGGAGGAAGGGGGCGGG (structured_DNA) [Bcl2WT, 6-FAM] ; Kd observed: ~17.2 µM
